test: activity coefficient (dimensionless); of the first substance listed, at infinite dilution; xn = mol fraction of the nth substance listed; details: 368.15 K; 101.33 kPa; Liquid; Chromatography; x1 = 0
assay-metric: activity coefficient
One number for each entry.

INSERT INTO assay_data (compound, assay_metric, recorded_number) VALUES
  ('Cc1cccc(C)c1 [1,3-dimethylbenzene] + CCCC[P+](CCCC)(CCCC)CCCC.O=S(=O)([N-]S(=O)(=O)C(F)(F)F)C(F)(F)F', 'activity coefficient', 1.58),
  ('Cc1ccccc1C [1,2-dimethylbenzene] + CCCC[P+](CCCC)(CCCC)CCCC.O=S(=O)([N-]S(=O)(=O)C(F)(F)F)C(F)(F)F', 'activity coefficient', 1.43),
  ('C#CCCCC [1-hexyne] + CCCC[P+](CCCC)(CCCC)CCCC.O=S(=O)([N-]S(=O)(=O)C(F)(F)F)C(F)(F)F', 'activity coefficient', 1.94),
  ('c1ccsc1 [thiophene] + CCCC[P+](CCCC)(CCCC)CCCC.O=S(=O)([N-]S(=O)(=O)C(F)(F)F)C(F)(F)F', 'activity coefficient', 0.812),
  ('CCCc1ccccc1 [propylbenzene] + CCCC[P+](CCCC)(CCCC)CCCC.O=S(=O)([N-]S(=O)(=O)C(F)(F)F)C(F)(F)F', 'activity coefficient', 1.93),
  ('CC#N [acetonitrile] + CCCC[P+](CCCC)(CCCC)CCCC.O=S(=O)([N-]S(=O)(=O)C(F)(F)F)C(F)(F)F', 'activity coefficient', 0.613);

Provide reported activity coefficient for each item, in the same order as listed.
1. C1=CCCCC1 [cyclohexene] + CCCC[P+](CCCC)(CCCC)CCCC.O=S(=O)([N-]S(=O)(=O)C(F)(F)F)C(F)(F)F
2. CCCCCO [pentan-1-ol] + CCCC[P+](CCCC)(CCCC)CCCC.O=S(=O)([N-]S(=O)(=O)C(F)(F)F)C(F)(F)F
3. C=CCCCCCC [oct-1-ene] + CCCC[P+](CCCC)(CCCC)CCCC.O=S(=O)([N-]S(=O)(=O)C(F)(F)F)C(F)(F)F

result:
2.27
1.76
4.92

###

What activity coefficient was measured for each of the following?
assay: activity coefficient (dimensionless); of the first substance listed, at infinite dilution; xn = mol fraction of the nth substance listed; details: 378.15 K; 101.33 kPa; Liquid; Chromatography; x1 = 0

INSERT INTO assay_data (compound, result) VALUES
  ('CCCOCCC [dipropyl ether] + CCCC[P+](CCCC)(CCCC)CCCC.O=S(=O)([N-]S(=O)(=O)C(F)(F)F)C(F)(F)F', 2.83),
  ('C1CCCC1 [cyclopentane] + CCCC[P+](CCCC)(CCCC)CCCC.O=S(=O)([N-]S(=O)(=O)C(F)(F)F)C(F)(F)F', 2.37),
  ('CC(C)c1ccccc1 [isopropylbenzene] + CCCC[P+](CCCC)(CCCC)CCCC.O=S(=O)([N-]S(=O)(=O)C(F)(F)F)C(F)(F)F', 2.02),
  ('C1=CCCCC1 [cyclohexene] + CCCC[P+](CCCC)(CCCC)CCCC.O=S(=O)([N-]S(=O)(=O)C(F)(F)F)C(F)(F)F', 2.29);

Note: attention shifts to another entry.
query: Find the recorded activity coefficient belonging to C=COC(C)=O [vinyl acetate] + CCCC[P+](CCCC)(CCCC)CCCC.O=S(=O)([N-]S(=O)(=O)C(F)(F)F)C(F)(F)F and report it.
result: 1.04
